Target: alpha2B receptor (Homo sapiens, UniProt P18089)
Construct: expressed in transfected cells; host or cells: NIH-3T3 cells
Sequence (P18089 1-450): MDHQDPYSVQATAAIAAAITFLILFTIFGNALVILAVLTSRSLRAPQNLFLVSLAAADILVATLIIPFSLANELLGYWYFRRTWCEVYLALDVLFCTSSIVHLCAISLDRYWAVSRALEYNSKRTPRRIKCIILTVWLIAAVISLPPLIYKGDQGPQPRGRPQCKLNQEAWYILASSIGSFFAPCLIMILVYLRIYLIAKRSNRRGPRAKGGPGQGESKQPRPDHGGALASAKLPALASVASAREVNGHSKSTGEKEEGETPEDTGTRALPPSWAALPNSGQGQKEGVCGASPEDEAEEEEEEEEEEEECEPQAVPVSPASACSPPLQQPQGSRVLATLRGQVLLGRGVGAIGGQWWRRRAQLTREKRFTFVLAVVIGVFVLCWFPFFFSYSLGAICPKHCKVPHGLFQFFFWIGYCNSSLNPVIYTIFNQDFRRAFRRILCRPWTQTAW
Experiment: RSAT (Receptor Selection and Amplification Technology) assay, alpha 2B
Type: cell-based
pEC50: −log10 of the molar value.
measurementLabel: pEC50

> print(dat)
          smilesnotation  measvalue
1  Cc1ccc(CNC(=O)NCCF)o1       6.01
2   Cc1cccnc1CNC(=O)NCCF       5.45
3    O=C(NCCF)NCc1ccccn1       5.70

###

Biological target: alpha2B receptor (Homo sapiens, UniProt P18089)
Construct: expressed in transfected cells; host or cells: NIH-3T3 cells
Test: RSAT (Receptor Selection and Amplification Technology) assay, alpha 2B
Assay type: cell-based
Conditions: intrinsic activity: ratio of maximal effect of drug to maximal effect of standard full agonist brimonidine (UK14304)
measurementLabel: Alpha 2B IA

> print(dat)
                                    compound  measvalue
 1     O=C(NCCF)NCc1cccc(I)c1I [Compound 13]       0.86
 2  O=C(NCCF)NCc1ccccc1C(F)(F)F [Compound 8]        0.8
 3  C[C@H](NC(=O)NCCF)c1ccccc1 [Compound 33]       0.99
 4      Cc1ccnc(CNC(=O)NCCF)c1 [Compound 39]       0.77
 5        O=C(NCCF)Nc1ccccc1Br [Compound 26]       0.33
 6      Cc1cccc(CNC(=O)NCCF)n1 [Compound 36]       0.78
 7       Cc1cccc(CNC(=O)NCCF)c1 [Compound 5]       1.26
 8    Cc1c(Cl)cccc1CNC(=O)NCCF [Compound 18]       1.24
 9  O=C(NCCF)NC(c1ccccc1)c1ccccc1 [Compound 32, 1-benzhydryl-3-(2-fluoro-ethyl)-urea]       0.58
10    O=C(NCCF)Nc1cccc2ccccc12 [Compound 30]        0.9
11    Cc1cccc(CNC(=O)NCCF)c1Cl [Compound 14]       0.85
12      Cc1cc(CNC(=O)NCCF)nn1C [Compound 44]       0.67

###

// reported Alpha 2B IA for each item listed
Target: alpha2B receptor (Homo sapiens)
Construct: expressed in transfected cells; host or cells: NIH-3T3 cells
Assay: RSAT (Receptor Selection and Amplification Technology) assay, alpha 2B
Format: cell-based
Conditions: intrinsic activity: ratio of maximal effect of drug to maximal effect of standard full agonist brimonidine (UK14304)
Protocol: The RSAT assay measures a receptor-mediated loss of contact inhibition that results in selective proliferation of receptor-containing cells in a mixed population of confluent cells. The increase in cell number is assessed with an appropriate transfected marker gene such as ∃-galactosidase, the activity of which can be easily measured in a 96-well format. Receptors that activate the G protein, Gq, elicit this response. […]
measurementLabel: Alpha 2B IA

> print(dat)
              smilesnotation  measurementlabel  measvalue
1     Cc1cccc(C)c1NC(=O)NCCF       Alpha 2B IA       0.75
2   O=C(NCCF)Nc1cccc2c1CCCC2       Alpha 2B IA       0.87
3     O=C(NCCF)NCc1ccc(O)cc1       Alpha 2B IA       0.84
4   O=C(NCCF)NCc1cccc(Cl)c1F       Alpha 2B IA        1.0
5  O=C(NCCF)Nc1ccc2c(c1)CCC2       Alpha 2B IA       0.33
6  COc1c(Cl)cccc1CNC(=O)NCCF       Alpha 2B IA       1.32

###

Molecular target: alpha2B receptor (Homo sapiens, UniProt P18089)
Construct: expressed in transfected cells; host or cells: NIH-3T3 cells
Assay: RSAT (Receptor Selection and Amplification Technology) assay, alpha 2B
Assay type: cell-based
Conditions: intrinsic activity: ratio of maximal effect of drug to maximal effect of standard full agonist brimonidine (UK14304)
// reported Alpha 2B IA for each item listed
measurementLabel: Alpha 2B IA

> print(dat)
                                    molecule  measurementlabel  measvalue
 1   O=C(NCCF)NCc1cccc(Cl)c1Cl [Compound 10]       Alpha 2B IA       0.91
 2      O=C(NCCF)NCc1cccc(Br)c1 [Compound 7]       Alpha 2B IA       0.84
 3         O=C(NCCF)NCc1ccccn1 [Compound 35]       Alpha 2B IA       0.75
 4       O=C(NCCF)NCc1cccc(I)c1 [Compound 9]       Alpha 2B IA       0.76
 5  Cc1ccccc1NC(=O)NCCF [Compound 22, 1-(2-fluoro-ethyl)-3-o-tolyl-urea]       Alpha 2B IA       0.92
 6       Cc1ccc(CNC(=O)NCCF)o1 [Compound 40]       Alpha 2B IA       0.83
 7         Cc1ccccc1CNC(=O)NCCF [Compound 2]       Alpha 2B IA       1.13
 8        Cc1cccnc1CNC(=O)NCCF [Compound 37]       Alpha 2B IA       0.40
 9   COc1c(Br)cccc1CNC(=O)NCCF [Compound 19]       Alpha 2B IA       0.83
10  O=C(NCCF)Nc1cccc2c1CCC2 [Compound 29, 1-(2-fluoro-ethyl)-3-indan-4-yl-urea]       Alpha 2B IA       0.89
11    COc1c(C)cccc1CNC(=O)NCCF [Compound 17]       Alpha 2B IA       1.25

###

// reported Alpha 2B IA for each item listed
Biological target: alpha2B receptor (Homo sapiens)
Construct: expressed in transfected cells; host or cells: NIH-3T3 cells
Experiment: RSAT (Receptor Selection and Amplification Technology) assay, alpha 2B
Format: cell-based
Details: intrinsic activity: ratio of maximal effect of drug to maximal effect of standard full agonist brimonidine (UK14304)
measurementLabel: Alpha 2B IA

> print(dat)
                    smilesnotation  measurementlabel  measvalue
1  O=C(NCCF)NCc1cccc(C(F)(F)F)c1Cl       Alpha 2B IA        0.9
2         O=C(NCCF)NCc1cccc2c1OCC2       Alpha 2B IA       1.14
3             O=C(NCCF)NCc1ccccc1F       Alpha 2B IA        1.1

###

Target: alpha2A receptor (Homo sapiens, UniProt P08913)
Sequence (P08913 whole entry): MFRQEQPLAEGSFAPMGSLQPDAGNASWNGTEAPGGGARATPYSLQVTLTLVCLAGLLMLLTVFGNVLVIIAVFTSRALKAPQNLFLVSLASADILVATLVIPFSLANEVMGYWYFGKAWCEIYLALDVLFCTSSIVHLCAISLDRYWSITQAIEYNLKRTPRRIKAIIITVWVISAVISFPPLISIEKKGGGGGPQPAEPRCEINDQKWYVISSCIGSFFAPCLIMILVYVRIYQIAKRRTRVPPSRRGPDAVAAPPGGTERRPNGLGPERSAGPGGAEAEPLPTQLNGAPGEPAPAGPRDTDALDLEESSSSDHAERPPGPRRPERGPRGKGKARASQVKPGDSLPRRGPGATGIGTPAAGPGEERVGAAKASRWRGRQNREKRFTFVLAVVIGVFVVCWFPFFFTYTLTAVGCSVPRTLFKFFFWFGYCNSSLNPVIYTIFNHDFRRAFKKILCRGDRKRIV
Assay: RSAT (Receptor Selection and Amplification Technology) assay, alpha 2A
Settings: RSAT, transfected NIH-3T3 cells; "not active" = not active at concentrations less than 10 micromolar
measurementLabel: log10 EC50 (log10 of the value in µM)

> print(dat)
                smilesnotation                               studytarget  measurementlabel  measvalue
 1   COc1c(Cl)cccc1CNC(=O)NCCF  alpha2A receptor (Homo sapiens, UniProt P08913)        log10 EC50       0.01
 2    O=C(NCCF)NCc1cccc(Cl)c1F  alpha2A receptor (Homo sapiens, UniProt P08913)        log10 EC50       0.24
 3    COc1c(C)cccc1CNC(=O)NCCF  alpha2A receptor (Homo sapiens, UniProt P08913)        log10 EC50      -0.17
 4        CCc1ccccc1NC(=O)NCCF  alpha2A receptor (Homo sapiens, UniProt P08913)        log10 EC50       0.43
 5    O=C(NCCF)Nc1cccc2c1CCCC2  alpha2A receptor (Homo sapiens, UniProt P08913)        log10 EC50      -0.41
 6     O=C(NCCF)NCc1cccc(I)c1I  alpha2A receptor (Homo sapiens, UniProt P08913)        log10 EC50       0.00
 7   Cc1nn(C)c(C)c1CNC(=O)NCCF  alpha2A receptor (Homo sapiens, UniProt P08913)        log10 EC50       0.62
 8    Cc1cccc(CNC(=O)NCCF)c1Cl  alpha2A receptor (Homo sapiens, UniProt P08913)        log10 EC50      -0.44
 9      O=C(NCCF)NCc1cccc(I)c1  alpha2A receptor (Homo sapiens, UniProt P08913)        log10 EC50       0.17
10      Cc1ccnc(CNC(=O)NCCF)c1  alpha2A receptor (Homo sapiens, UniProt P08913)        log10 EC50       0.34
11    O=C(NCCF)NCc1cccc2c1OCC2  alpha2A receptor (Homo sapiens, UniProt P08913)        log10 EC50      -0.83
12     O=C(NCCF)Nc1cccc2c1CCC2  alpha2A receptor (Homo sapiens, UniProt P08913)        log10 EC50      -0.03
13      Cc1cccc(CNC(=O)NCCF)c1  alpha2A receptor (Homo sapiens, UniProt P08913)        log10 EC50      -0.01
14    O=C(NCCF)Nc1cccc2ccccc12  alpha2A receptor (Homo sapiens, UniProt P08913)        log10 EC50       0.03
15      Cc1cccc(CNC(=O)NCCF)n1  alpha2A receptor (Homo sapiens, UniProt P08913)        log10 EC50       0.25
16    Cc1c(Cl)cccc1CNC(=O)NCCF  alpha2A receptor (Homo sapiens, UniProt P08913)        log10 EC50      -0.40
17      O=C(NCCF)NCc1cccc(O)c1  alpha2A receptor (Homo sapiens, UniProt P08913)        log10 EC50       0.55
18  C[C@H](NC(=O)NCCF)c1ccccc1  alpha2A receptor (Homo sapiens, UniProt P08913)        log10 EC50      -0.52
19   O=C(NCCF)NCc1cccc(Br)c1Cl  alpha2A receptor (Homo sapiens, UniProt P08913)        log10 EC50      -0.65
20       O=C(NCCF)NCc1ccccc1Br  alpha2A receptor (Homo sapiens, UniProt P08913)        log10 EC50      -0.91
21    O=C(NCCF)Nc1ccc2ccccc2c1  alpha2A receptor (Homo sapiens, UniProt P08913)        log10 EC50       0.10
